Source of measurements: the Deep4Chem optical property database

Readings of emission maximum for the listed compounds
assay: solvent given as SMILES; conditions: in O
Write the number in nm without appending the unit.

These solved cases illustrate the format of a correct answer.
>>> endpoint_value("Fc1ccc2cc3cccc[n+]3cc2c1")
408
>>> endpoint_value("Nc1cccc2ncccc12")
534
>>> endpoint_value("Oc1cc(-c2cccs2)ccc1-c1nc2ccccc2s1")
517
>>> endpoint_value("CC[N+]1(CC)CN2C(=N1)C(C(=O)O)=Cc1cc(Cl)ccc12")
472
>>> endpoint_value("C[NH+](C)c1c2ccccc2cc2ccccc12")
400
>>> endpoint_value("N#CC(C#N)=Cc1ccc(-c2cccc(-c3nc4ccccc4s3)c2O)o1")
635
>>> endpoint_value("CCCN1/C(=C/C=C(/C=C/C2=[N+](CCC)c3ccccc3C2(C)C)c2ccc3ccccc3n2)C(C)(C)c2ccccc21")
653
>>> endpoint_value("CCOC(=O)COc1ccccc1C(c1c(C)[nH]c2ccccc12)c1c(C)[nH]c2ccccc12")
350

### Prompt State its emission maximum for this compound: Cc1ccc2c(c1)n(C)c(-c1ccc(-c3ccc(-c4ccc(-c5n(C)c6cc(C)ccc6[n+]5C)cc4)cc3)cc1)[n+]2C
### Response 397

### Prompt Specify reported emission maximum for the compound shown: O=C(/C=C/c1ccc(O)c(O)c1)O[C@H](Cc1ccc(O)c(O)c1)C(=O)O
### Response 444

### Prompt Provide measured emission maximum value, entry: CN(C)c1ccc2c3c(c(=O)oc2c1)C=c1cc2c(cc1O3)=[N+](CCC(=O)O)CCC2
### Response 641
